Reference source for all entries: patent US8178506B2

- Test system: aP2
- protocol details: aP2 mRNA expression in adipocytes (real-time PCR)
- Type: cell-based, human
- conditions used: differentiating adipocytes transfected with oligomeric compound; Table 75
In the oligonucleotide strings, read from the 5' end, every base follows the letter of its sugar. An asterisk marks phosphorothioate; unmarked linkages are phosphodiester. Other units and linkages are bracketed, terminal groups are in braces. A string of capitals states the bases alone. e = 2'-O-(2-methoxyethyl) (MOE); [5mC] = 5-methylcytosine
recorded metric: aP2 mRNA

Exercise: GET /values?readout=aP2 mRNA&system=aP2&item= 348119 (UCCAUAAAGUAGGAAACACUACA; anti-miR; all 2'-MOE, all phosphorothioate, methylation of C and T or U not given here) [compound 348119]
Key: 81 percentage of untreated control (UTC)

Exercise: Also need 328122 (antisense e[5mC]*eA*eA*eA*eA*e[5mC]*eA*eT*eA*eA*eA*eA*eA*eT*e[5mC]*e[5mC]*eT*eT*eG*e[5mC]*eA) [compound 328122] , thanks.
Key: 99 percentage of untreated control (UTC)

Exercise: Further, for 328133 (eT*eG*eA*eA*eG*eG*eT*eT*e[5mC]*eG*eG*eA*eG*eA*eT*eA*eG*eG*e[5mC]*eT*eA; anti-miR) [compound 328133] ?
Key: 66 percentage of untreated control (UTC)
